target: KRas-mediated phosphorylation of ERK in A549 cells (Homo sapiens, UniProt P01116, G12S); construct: pERK HTRF read-out; experiment: Inhibition of KRas-mediated phosphorylation of ERK (HTRF), A549 cells; type: cell-based; conditions: HTRF pERK, 3 h incubation
Sequence (P01116 1-188 isoform P01116-2 G12S): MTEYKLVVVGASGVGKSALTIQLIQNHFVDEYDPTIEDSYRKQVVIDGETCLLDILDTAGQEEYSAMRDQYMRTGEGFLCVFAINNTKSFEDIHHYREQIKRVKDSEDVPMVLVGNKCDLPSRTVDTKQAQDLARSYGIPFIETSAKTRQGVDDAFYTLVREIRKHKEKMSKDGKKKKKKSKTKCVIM
readout-name: IC50 (nM)

* CCc1c(F)ccc2cc(O)cc(-c3ncc4c(N5CC[C@@H](C(=O)n6ccc(C)n6)[C@@H](C)C5)nc(OC[C@@]56CCCN5C[C@H](F)C6)nc4c3F)c12 | 785
* N#Cc1c(N)sc2c(F)ccc(-c3c(Cl)cc4c(N5CCN(C(=O)n6nccn6)CC5)nc(OC[C@@]56CCCN5C[C@H](F)C6)nc4c3F)c12 | 290
* CN(C)Cc1ccn(C(=O)C2CCCN(c3nc(OC[C@@]45CCCN4C[C@H](F)C5)nc4c(F)c(-c5ccc(F)c6sc(N)c(C#N)c56)c(Cl)cc34)CC2)n1 (some centres unmarked) | 25
* CN(CCCC(=O)N(C)c1cccnc1)c1nc(OC[C@@]23CCCN2C[C@H](F)C3)nc2c(F)c(-c3ccc(F)c4sc(N)c(C#N)c34)c(Cl)cc12 | 410
* CN(C)CCc1ccn(C(=O)C2CCCN(c3nc(OC[C@@]45CCCN4C[C@H](F)C5)nc4c(F)c(-c5ccc(F)c6sc(N)c(C#N)c56)c(Cl)cc34)CC2)n1 (some centres unmarked) | 12
* CCc1c(F)ccc2cc(O)cc(-c3ncc4c(N5CCC(C(=O)n6cc(C(C)C)cn6)CC5)nc(OC[C@@]56CCCN5C[C@H](F)C6)nc4c3F)c12 | 431
* N#Cc1c(N)sc2c(F)ccc(-c3c(Cl)cc4c(N5CCN(C(=O)n6ccnn6)CC5)nc(OC[C@@]56CCCN5C[C@H](F)C6)nc4c3F)c12 | 69
* CC(C)(C)c1ccn(C(=O)C2CCCN(c3nc(OC[C@@]45CCCN4C[C@H](F)C5)nc4c(F)c(-c5ccc(F)c6sc(N)c(C#N)c56)c(Cl)cc34)CC2)n1 (some centres unmarked) | 336
* N#Cc1c(N)sc2c(F)ccc(-c3c(Cl)cc4c(N5CCC(C(=O)Oc6cccnc6)CC5)nc(OC[C@@]56CCCN5C[C@H](F)C6)nc4c3F)c12 | 16
* Cc1ccn(C(=O)C2CCCCN(c3nc(OC[C@@]45CCCN4C[C@H](F)C5)nc4c(F)c(-c5ccc(F)c6sc(N)c(C#N)c56)c(Cl)cc34)C2)n1 (some centres unmarked) | 249
* CCc1c(F)ccc2cc(O)cc(N3CCc4c(nc(OC[C@@]56CCCN5C[C@H](F)C6)nc4N(C)CCCC(=O)n4ccc(C)n4)C3)c12 | 130
* C#CCC1(C(=O)n2ccc(C)n2)CCN(c2nc(OC[C@@]34CCCN3C[C@H](F)C4)nc3c(F)c(-c4cc(O)cc5ccc(F)c(CC)c45)ncc23)C1 (some centres unmarked) | 2000
* CCc1c(F)ccc2cc(O)cc(-c3ncc4c(N(C)CCNC(=O)n5ccnn5)nc(OC[C@@]56CCCN5C[C@H](F)C6)nc4c3F)c12 | 1680
* CCc1c(F)ccc2cc(O)cc(-c3ncc4c(N5CC6CC(C(=O)N(C)C(C)=O)CC6C5)nc(OC[C@@]56CCCN5C[C@H](F)C6)nc4c3F)c12 (some centres unmarked) | 276
* CN(CCNC(=O)n1ccnn1)c1nc(OC[C@@]23CCCN2C[C@H](F)C3)nc2c(F)c(-c3ccc(F)c4sc(N)c(C#N)c34)c(Cl)cc12 | 249
* CCc1c(F)ccc2cc(O)cc(-c3ncc4c(N5CCC(C(=O)n6ccc(C)n6)C6CC65)nc(OC[C@@]56CCCN5C[C@H](F)C6)nc4c3F)c12 (some centres unmarked) | 2120

###

target: KRas-mediated phosphorylation of ERK in MKN1 cells (Homo sapiens, UniProt P01116); construct: pERK HTRF read-out; assay: Inhibition of KRas-mediated phosphorylation of ERK (HTRF), MKN1 cells; format: cell-based; conditions: MKN1 cells (KRas WT); HTRF pERK; 3 h incubation
Sequence (P01116 1-188 isoform P01116-2): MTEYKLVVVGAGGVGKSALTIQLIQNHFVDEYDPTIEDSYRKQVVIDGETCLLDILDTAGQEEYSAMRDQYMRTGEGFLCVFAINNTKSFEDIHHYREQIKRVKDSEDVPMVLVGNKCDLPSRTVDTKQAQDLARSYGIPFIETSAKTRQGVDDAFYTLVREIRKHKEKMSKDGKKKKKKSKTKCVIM
IC50 vs 200 nM: less than gives fulfilled; not less than gives not fulfilled.

• CCc1c(F)ccc2cc(O)cc(-c3ncc4c(N5CCC(CC(=O)n6ccc(C)n6)C5)nc(OC[C@@]56CCCN5C[C@H](F)C6)nc4c3F)c12 (some centres unmarked) = not fulfilled
• CCc1c(F)ccc2cc(O)cc(-c3ncc4c(N5CCOCC(C(=O)n6ccc(C)n6)C5)nc(OC[C@@]56CCCN5C[C@H](F)C6)nc4c3F)c12 (some centres unmarked) = not fulfilled
• CON(C)C(=O)C1CCN(c2nc(OC[C@@]34CCCN3C[C@H](F)C4)nc3c(F)c(-c4ccc(F)c5sc(N)c(C#N)c45)c(Cl)cc23)CC1 = fulfilled
• N#Cc1c(N)sc2c(F)ccc(-c3c(Cl)cc4c(N5CCC(C(=O)Oc6ccccc6F)CC5)nc(OC[C@@]56CCCN5C[C@H](F)C6)nc4c3F)c12 = not fulfilled
• CCc1c(F)ccc2cc(O)cc(N3CCc4c(nc(OC[C@@]56CCCN5C[C@H](F)C6)nc4N4CCCCC(C(=O)n5ccc(C)n5)C4)C3)c12 (some centres unmarked) = fulfilled
• N#Cc1c(N)sc2c(F)ccc(-c3c(Cl)cc4c(N5CCC[C@H](C(=O)n6ccc(C7CC7)n6)CC5)nc(OC[C@@]56CCCN5C[C@H](F)C6)nc4c3F)c12 = fulfilled
• N#Cc1c(N)sc2c(F)ccc(-c3c(Cl)cc4c(N5CCC(C(=O)Oc6cccc(Cl)c6)CC5)nc(OC[C@@]56CCCN5C[C@H](F)C6)nc4c3F)c12 = not fulfilled
• CCc1c(F)ccc2cc(O)cc(-c3ncc4c(N5CC6CC(C(=O)N(C)C(C)=O)CC6C5)nc(OC[C@@]56CCCN5C[C@H](F)C6)nc4c3F)c12 (some centres unmarked) = not fulfilled
• CCc1c(F)ccc2cc(O)cc(-c3ncc4c(N(C)C(C)CCC(=O)N(C)C(C)=O)nc(OC[C@@]56CCCN5C[C@H](F)C6)nc4c3F)c12 (some centres unmarked) = not fulfilled
• CCc1c(F)ccc2cc(O)cc(N3CCc4c(nc(OC[C@@]56CCCN5C[C@H](F)C6)nc4N4CCC(C(=O)n5ccc(C)n5)CC4)C3)c12 = not fulfilled
• CCc1c(F)ccc2cc(O)cc(N3CCc4c(nc(OC[C@@]56CCCN5C[C@H](F)C6)nc4NCCC(=O)n4ccc(C)n4)C3)c12 = not fulfilled
• COc1ccn(C(=O)C2CCCN(c3nc(OC[C@@]45CCCN4C[C@H](F)C5)nc4c(F)c(-c5ccc(F)c6sc(N)c(C#N)c56)c(Cl)cc34)CC2)n1 (some centres unmarked) = fulfilled
• CCc1c(F)ccc2cc(O)cc(-c3ncc4c(N5CCC(C(=O)n6nc(C)cc6C)CC5)nc(OC[C@@]56CCCN5C[C@H](F)C6)nc4c3F)c12 = not fulfilled

###

target: KRas-mediated phosphorylation of ERK in H358 cells (Homo sapiens, UniProt P01116, G12C); construct: pERK HTRF read-out; test: Inhibition of KRas-mediated phosphorylation of ERK (HTRF), H358 cells; type: cell-based; details: HTRF pERK, 3 h incubation
Sequence (P01116 1-188 isoform P01116-2 G12C): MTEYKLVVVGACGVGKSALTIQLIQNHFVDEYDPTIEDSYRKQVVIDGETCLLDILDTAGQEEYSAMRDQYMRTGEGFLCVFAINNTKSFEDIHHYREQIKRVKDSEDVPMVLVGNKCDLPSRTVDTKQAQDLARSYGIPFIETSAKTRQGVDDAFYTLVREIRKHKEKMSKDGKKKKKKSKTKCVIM
readout-name: IC50 (nM)

• Cc1ccccc1OC(=O)C1CCN(c2nc(OC[C@@]34CCCN3C[C@H](F)C4)nc3c(F)c(-c4ccc(F)c5sc(N)c(C#N)c45)c(Cl)cc23)CC1 = 26
• CCc1c(F)ccc2cc(O)cc(-c3ncc4c(N5CCN(C(=O)n6ccc(C)n6)C6(CC6)C5)nc(OC[C@@]56CCCN5C[C@H](F)C6)nc4c3F)c12 (single isomer, unassigned) = 1250
• CCc1c(F)ccc2cc(O)cc(-c3ncc4c(N5CCCC(C(=O)n6ccc(C)n6)CC5)nc(OCC5(CN(C)C)CC5)nc4c3F)c12 (stereo not shown) = 5100
• COCC(=O)N(C)C(=O)CCCN(C)c1nc(OC[C@@]23CCCN2C[C@H](F)C3)nc2c(F)c(-c3ccc(F)c4sc(N)c(C#N)c34)c(Cl)cc12 = 15
• CCc1c(F)ccc2cc(O)cc(-c3ncc4c(N(C)CCN(C)C(=O)n5ccnn5)nc(OC[C@@]56CCCN5C[C@H](F)C6)nc4c3F)c12 (single isomer, unassigned) = 4
• CCc1c(F)ccc2cc(O)cc(-c3ncc4c(N5CCCN(C(=O)n6ccc(C)n6)CC5)nc(OC[C@@]56CCCN5C[C@H](F)C6)nc4c3F)c12 = 1120

###

Measured IC50 values are reported for all entries that follow.
target: KRas WT (Homo sapiens); construct: Biotinylated KRas (corresponding to amino acids 1-169, produced at Accelegan Inc.); biotin (biotinylated); purchased Accelegan Inc; experiment: KRas binding assay, TR-FRET displacement of Cy5 labelled tracer; conditions: 60-minute incubation at room temperature, 1% DMSO, pH 7.5
Sequence (P01116 1-169 isoform P01116-2): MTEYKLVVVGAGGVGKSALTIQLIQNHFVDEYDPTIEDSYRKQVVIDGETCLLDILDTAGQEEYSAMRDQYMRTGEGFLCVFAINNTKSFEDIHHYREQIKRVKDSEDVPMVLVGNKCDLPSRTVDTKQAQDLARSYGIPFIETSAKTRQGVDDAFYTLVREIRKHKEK
readout-name: IC50

- O=C1OCCN1C(=O)C1CCN(c2nc(OCC34CCCN3CCC4)nc3c(F)c(-c4cccc5cccc(F)c45)ncc23)CC1: 73900 nM
- CN(C=O)C(=O)CCCN(C)c1nc(OC[C@@]23CCCN2C[C@H](F)C3)nc2c(F)c(-c3ccc(F)c4sc(N)c(C#N)c34)c(Cl)cc12: 6 nM
- CON(C(C)=O)C(=O)CCCN(C)c1nc(OC[C@@]23CCCN2C[C@H](F)C3)nc2c(F)c(-c3ccc(F)c4sc(N)c(C#N)c34)c(Cl)cc12: 9 nM
- N#Cc1c(N)sc2c(F)ccc(-c3c(Cl)cc4c(N5CCC(C(=O)Oc6cccc(Cl)c6)CC5)nc(OC[C@@]56CCCN5C[C@H](F)C6)nc4c3F)c12: 99 nM

Taken from patent US20260356856A1.
